# SUBJECT_OF_TEST: human cannabinoid receptor type II (CB2R) (Homo sapiens, UniProt P34972)
# Sequence (P34972 whole entry): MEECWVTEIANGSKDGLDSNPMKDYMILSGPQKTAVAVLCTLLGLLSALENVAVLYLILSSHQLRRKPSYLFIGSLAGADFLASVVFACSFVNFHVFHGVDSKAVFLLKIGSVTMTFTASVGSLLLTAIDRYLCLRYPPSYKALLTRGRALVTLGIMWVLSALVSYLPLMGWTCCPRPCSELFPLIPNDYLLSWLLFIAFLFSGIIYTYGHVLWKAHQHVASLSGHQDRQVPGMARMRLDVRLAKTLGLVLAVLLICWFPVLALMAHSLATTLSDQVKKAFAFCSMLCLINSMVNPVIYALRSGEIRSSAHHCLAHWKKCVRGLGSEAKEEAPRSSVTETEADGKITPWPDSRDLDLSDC
# MEASUREMENT_DESCRIPTION: cell-based
# Assay type: cell-based
# Set-up: Normalized Activity at 1 μM, CB2R; other: PINACA compounds, 1 μM; Normalized Activity at 1 μm, CB2R; other: 5-fluoro PB-22 isomers, 1 μm; other: MFα-CB2R, ST03 sterol strain, pH 5.8; activity against CB2R; other: at 10 nM, dose response; preference at CB2R of ADB-BINACA over AB-PINACA; signaling at CB2R in synthetic cannabinoid screen; fused on or other part: yeast mating factor alpha (MFα) pre-pro leader fused at the N-terminus as a trafficking signal
# TEST_CONTEXT: compounds at 1 μM
REPORTED_METRIC: signaling at CB2R in synthetic cannabinoid screen

The cases that follow already have their signaling at CB2R in synthetic cannabinoid screen on record.
                                   compound               result
0    CCCCCn1cc(-c2nc(CN(CC)CC)cs2)c2ccccc21  poor CB2R signalers
1  CC(C)[C@H](NC(=O)c1cn(Cc2ccccc2)c2ccccc12)C(N)=O  poor CB2R signalers
2  CCCCCn1nc(C(=O)NC(C(N)=O)C(C)(C)C)c2ccccc21 (stereo not drawn)        high activity
3  CC(C)[C@H](NC(=O)c1cn(CC2CCCCC2)c2ccccc12)C(N)=O  poor CB2R signalers

q: Any idea what signaling at CB2R in synthetic cannabinoid screen was measured for CCCCCn1nc(C(=O)N[C@H](C(N)=O)C(C)C)c2ccccc21 ?
a: high activity

* * *

For each of the compounds below, state its pEC50.
# SUBJECT_OF_TEST: human Cannabinoid Receptor 1 (CB1R) (Homo sapiens, UniProt P21554)
# Construct: syn-prepro (synthetic yeast pre-pro secretion leader) (N); Gpa1-Gαi3 chimera
# Sequence (P21554 90-472): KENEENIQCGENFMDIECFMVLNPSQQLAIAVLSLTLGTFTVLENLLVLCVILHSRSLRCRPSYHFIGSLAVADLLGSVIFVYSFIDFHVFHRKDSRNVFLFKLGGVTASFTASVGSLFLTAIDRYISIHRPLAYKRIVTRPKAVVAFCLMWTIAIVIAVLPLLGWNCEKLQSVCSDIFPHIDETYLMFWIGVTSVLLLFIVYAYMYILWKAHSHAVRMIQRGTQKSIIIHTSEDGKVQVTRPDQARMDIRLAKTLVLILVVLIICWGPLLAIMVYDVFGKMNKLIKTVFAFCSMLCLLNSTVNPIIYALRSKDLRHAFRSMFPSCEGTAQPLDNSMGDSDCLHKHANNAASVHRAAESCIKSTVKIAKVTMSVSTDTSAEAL
# TEST_CONTEXT: syn-prepro-Δ89-CB1R, wild type ergosterol strain; read-out: EC50 at CB1R, synthetic cannabinoid dose response
Numbers only, as −log10 of the molar value.

The cases that follow already have their pEC50 on record.
>>> print(df.to_string())
                                   compound  reported_metric  quantitative_result
0  CCCC(NC(=O)c1nn(Cc2ccc(F)cc2)c2ccccc12)C(N)=O (single isomer, unassigned; isomer 1) [AB-FUBINACA isomer 1]            pEC50                11.00
1  CC(C)[C@H](NC(=O)c1nn(Cc2ccc(F)cc2)c2ccccc12)C(N)=O            pEC50                 9.18
2  CCC(C)(NC(=O)c1nn(Cc2ccc(F)cc2)c2ccccc12)C(N)=O (single isomer, unassigned; isomer 2) [AB-FUBINACA isomer 2]            pEC50                 9.64

Report pEC50 for every entry below.
1. CCCCCn1nc(C(=O)NC(C(N)=O)C(C)(C)C)c2ccccc21 (stereo not drawn)
2. CCC(C(N)=O)N(C)C(=O)c1nn(Cc2ccc(F)cc2)c2ccccc12 (single isomer, unassigned; isomer 5) [AB-FUBINACA isomer 5]
3. CC(C)(C)C(NC(=O)c1c2ccccc2nn1CCCCCF)C(N)=O (single isomer, unassigned; isomer 2) [5-fluoro ADB-PINACA isomer 2]

a:
10.05
7.80
8.65
